# Target Or System: Large T antigen (Simian virus 40) (UniProt P03070)
# Sequence (P03070 whole entry, looked up): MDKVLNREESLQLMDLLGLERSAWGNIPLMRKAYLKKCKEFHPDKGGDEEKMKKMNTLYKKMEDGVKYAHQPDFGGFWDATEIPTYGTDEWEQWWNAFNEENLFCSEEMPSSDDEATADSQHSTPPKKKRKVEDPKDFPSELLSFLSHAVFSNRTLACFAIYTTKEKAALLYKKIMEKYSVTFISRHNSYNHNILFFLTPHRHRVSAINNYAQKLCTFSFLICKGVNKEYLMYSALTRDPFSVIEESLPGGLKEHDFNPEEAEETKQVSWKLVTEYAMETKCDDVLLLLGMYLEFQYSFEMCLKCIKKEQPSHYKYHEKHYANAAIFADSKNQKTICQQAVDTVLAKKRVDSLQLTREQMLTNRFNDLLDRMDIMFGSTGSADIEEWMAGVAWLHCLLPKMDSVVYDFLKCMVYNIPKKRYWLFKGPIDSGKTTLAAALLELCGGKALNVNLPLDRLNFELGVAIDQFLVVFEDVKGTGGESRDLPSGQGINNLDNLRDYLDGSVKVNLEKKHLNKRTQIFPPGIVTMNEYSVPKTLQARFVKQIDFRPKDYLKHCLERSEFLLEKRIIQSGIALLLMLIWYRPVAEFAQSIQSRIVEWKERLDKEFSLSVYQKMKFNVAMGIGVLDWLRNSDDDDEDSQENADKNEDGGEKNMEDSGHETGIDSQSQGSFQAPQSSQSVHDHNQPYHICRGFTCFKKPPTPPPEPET
# Method: SV40 large T antigen inhibitors, biochemical (AID 1903)
# Measurement Setup: SV40 large T antigen ATPase/helicase inhibition assay; at 20 µM; hits give high values
Hit rate of the full screen: of about 310,000 compounds, about 1,200 (0.39%) were called active. Not all results are given here. Results with a measured potency or affinity are listed apart.
Attribute Measured: inhibition (%)
Note: unit % is implicit; provide only the numeric part.

Enquiry: For the compound O=C(COc1cccc(C(F)(F)F)c1)N1CCN(c2ccccc2O)CC1 , what inhibition is on record?
Return: 22.7

Enquiry: Now this one: O=[N+]([O-])c1ccccc1-c1cc(-c2cc(Cl)ccc2O)n[nH]1
Return: 19

Enquiry: And for O=[N+]([O-])c1ccccc1-c1cc(-c2ccccc2O)n[nH]1 ?
Return: 5.15

Enquiry: Now the compound O=C(O)[C@@H](O)[C@H](O)C(=O)O
Return: 16.5

Enquiry: Cc1ccc(OCCCC(=O)N2CCOCC2)cc1 , same question.
Return: 0.37

Enquiry: Please give the result for COc1cccc(N/C=C/C(=O)c2ccc(OC)c(OC)c2)c1 too.
Return: 15.6

Enquiry: Another: O=C(C1CC1)N1CCN(c2ccc(F)cc2)CC1
Return: 2.25

Enquiry: // same read-out, input: COc1ccc(N2CCN(C(=O)COC(=O)CCOc3ccc(C)cc3)CC2)cc1
Return: 10.6

Enquiry: Can you check O=C(C1CCCN(Cc2cccc(Cl)c2)C1)N1CCCCC1 (stereo unspecified) next?
Return: 2.11

Enquiry: Check O=C(NC1CCCC1)C1CCN(C(=O)NCc2ccccc2)CC1 too.
Return: 8.69

Enquiry: Entry to check: O=C(C1CC1)N1CCN(c2ccc([N+](=O)[O-])cc2)CC1
Return: 12.1
